target.system: T1, human NPR1 extracellular domain expressed with a C-terminal myc-myc-hexahistidine (hNPR1-MMH) (human, UniProt P16066 33-473)
T1 construct: also called hNPR.mmh; monomeric human NPR1
T1 sequence (P16066 other isoform, or with tags, fused parts or gaps): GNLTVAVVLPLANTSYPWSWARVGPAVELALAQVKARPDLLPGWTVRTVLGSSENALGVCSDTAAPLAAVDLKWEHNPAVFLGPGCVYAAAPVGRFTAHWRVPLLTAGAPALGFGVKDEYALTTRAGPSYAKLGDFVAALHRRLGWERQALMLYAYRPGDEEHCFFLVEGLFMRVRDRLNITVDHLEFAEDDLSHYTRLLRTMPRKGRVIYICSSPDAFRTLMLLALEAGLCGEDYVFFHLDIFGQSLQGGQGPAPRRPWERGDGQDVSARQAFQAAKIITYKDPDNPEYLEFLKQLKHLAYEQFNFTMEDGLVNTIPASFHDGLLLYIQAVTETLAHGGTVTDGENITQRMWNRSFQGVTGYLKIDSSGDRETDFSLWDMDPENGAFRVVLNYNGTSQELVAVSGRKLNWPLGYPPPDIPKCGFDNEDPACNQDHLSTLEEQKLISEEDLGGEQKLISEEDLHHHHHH
experimental.details: SPR, mAb captured, 25 C
Listed here are binders together with their documented kon.

- binder: "mAb25508 (antibody, V domains shown) VH: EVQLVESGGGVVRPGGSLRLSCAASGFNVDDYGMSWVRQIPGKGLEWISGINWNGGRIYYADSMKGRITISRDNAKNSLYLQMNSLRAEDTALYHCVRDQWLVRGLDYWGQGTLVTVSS VL: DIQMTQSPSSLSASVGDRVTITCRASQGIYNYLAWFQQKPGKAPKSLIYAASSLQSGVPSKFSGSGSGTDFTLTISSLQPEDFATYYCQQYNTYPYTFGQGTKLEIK"
  unit.of.measurement: "M⁻¹ s⁻¹"
  kon: 432000
- binder: "mAb25497 (antibody, V domains shown) VH: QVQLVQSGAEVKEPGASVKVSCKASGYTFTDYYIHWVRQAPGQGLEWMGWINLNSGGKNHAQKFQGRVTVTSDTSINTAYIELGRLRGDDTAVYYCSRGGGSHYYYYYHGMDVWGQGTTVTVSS VL: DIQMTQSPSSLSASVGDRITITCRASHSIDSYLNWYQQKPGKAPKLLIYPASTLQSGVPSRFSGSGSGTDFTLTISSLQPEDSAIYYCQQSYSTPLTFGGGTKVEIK"
  unit.of.measurement: "M⁻¹ s⁻¹"
  kon: 31700
- binder: "mAb22035 (antibody, V domains shown) VH: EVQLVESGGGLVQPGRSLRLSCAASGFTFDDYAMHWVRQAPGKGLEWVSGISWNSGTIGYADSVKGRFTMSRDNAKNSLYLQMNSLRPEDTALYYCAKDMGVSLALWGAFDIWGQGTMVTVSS VL: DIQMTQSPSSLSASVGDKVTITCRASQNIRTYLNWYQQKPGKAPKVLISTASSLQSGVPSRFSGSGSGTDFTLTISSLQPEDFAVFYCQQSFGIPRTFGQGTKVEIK"
  unit.of.measurement: "M⁻¹ s⁻¹"
  kon: 203000
- binder: "mAb25479 (antibody, V domains shown) VH: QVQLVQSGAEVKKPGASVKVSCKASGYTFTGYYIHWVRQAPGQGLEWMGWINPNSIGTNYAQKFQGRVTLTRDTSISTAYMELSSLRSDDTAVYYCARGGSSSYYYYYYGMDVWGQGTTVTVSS VL: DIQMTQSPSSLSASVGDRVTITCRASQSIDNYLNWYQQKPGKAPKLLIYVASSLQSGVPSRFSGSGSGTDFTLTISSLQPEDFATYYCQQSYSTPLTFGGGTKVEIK"
  unit.of.measurement: "M⁻¹ s⁻¹"
  kon: 14000
- binder: "mAb25491 (antibody, V domains shown) VH: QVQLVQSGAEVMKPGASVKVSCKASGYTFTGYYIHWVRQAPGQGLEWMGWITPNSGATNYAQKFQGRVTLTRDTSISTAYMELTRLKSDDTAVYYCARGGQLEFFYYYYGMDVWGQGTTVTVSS VL: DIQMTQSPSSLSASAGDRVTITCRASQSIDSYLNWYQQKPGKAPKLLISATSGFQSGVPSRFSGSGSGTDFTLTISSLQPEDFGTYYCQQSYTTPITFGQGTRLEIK"
  unit.of.measurement: "M⁻¹ s⁻¹"
  kon: 26200
- binder: "mAb22033 (antibody, V domains shown) VH: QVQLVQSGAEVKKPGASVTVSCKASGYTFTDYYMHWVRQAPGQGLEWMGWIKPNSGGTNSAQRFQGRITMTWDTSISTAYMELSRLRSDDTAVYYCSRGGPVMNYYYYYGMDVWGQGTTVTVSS VL: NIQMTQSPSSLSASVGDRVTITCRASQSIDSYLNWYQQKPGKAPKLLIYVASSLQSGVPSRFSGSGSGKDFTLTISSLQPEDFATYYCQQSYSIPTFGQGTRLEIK"
  unit.of.measurement: "M⁻¹ s⁻¹"
  kon: 8550
